protocol: Dissociation constant, pKa of the compound
Assay type: physicochemical

{"mol smiles": "COc1ccc(S(=O)(=O)N(CC(=O)O)c2ccc(N(CC(=O)O)S(=O)(=O)c3ccc(OC)cc3)c3ccccc23)cc1", "pKa": 4.62}

Measured values drawn from ChEMBL document CHEMBL3233002 for this set.
